Format: in vivo, human
SETUP CONDITIONS: human, plasma, oral
QUANTITY: Tmax (h)
Write down the numeric answer in h and omit the unit.

// lookup Tmax for COc1ccc(Cl)cc1C(=O)NCCc1ccc(S(=O)(=O)NC(=O)NC2CCCCC2)cc1 [glyburide]
3

###

SETUP CONDITIONS: human, urine, oral, CLr (renal clearance), Treatment D, rifampin IV/PO; mean±SD
QUANTITY: CL renal (mL/day/kg)
Dear colleague, please return just the value in mL/day/kg, with no unit written.

Requested read-out: CL renal. Entry: COc1ccc(Cl)cc1C(=O)NCCc1ccc(S(=O)(=O)NC(=O)NC2CCCCC2)cc1 [glyburide]
0.384
